B1: TPR t1 (parent)
chain: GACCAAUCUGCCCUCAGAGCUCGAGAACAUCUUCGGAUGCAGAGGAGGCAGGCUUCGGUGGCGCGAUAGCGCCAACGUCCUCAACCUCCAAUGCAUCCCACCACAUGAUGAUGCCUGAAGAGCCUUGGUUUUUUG

Variants of: B1
Method: polymerase ribozyme fitness, log enrichment relative to wild type (log ratio); higher = more active; in vitro selection for triplet polymerase activity
Measured polymerase ribozyme fitness (log ratio), listed per entry for reference.
Property measured: polymerase ribozyme fitness (log ratio)

1. GACCAAUCUGCCCUCAGAGCUCGAGAACAUCUUCGGAUGCAGAGGAGGCAGGCUUCGGUGGCGCGAUAGCUCCAACGUCCUCAACCUCCAAUGCAUCCCACCACAUGAUGAUGCUUGAAGAGCCUUGGUUUUUUG [G71U C115U]
-1.41
2. GACCAAUCUCCCCUCAGAGCUCGAGAACAUCUUCGGAUGCAGAGGAGGCAGGCUUCGGUGUCGCGAUAGCGCCAACGUCCUCAACCUCCAAUGCAUCCCACCACAUGACGAUGCCUGAAGAGCCUUGGUUUUUUG [G10C G61U U109C]
-5.18
3. GACCAAUCUGGCCUCAGAGCUCGAGAACAUCUUCGGAUGCAGAGGAGGCAGGCUUCGGUGGCGCGAUAGCGCCAACGUCCUCAACCUCCAAUGCAUCCCACCACAUGAUGAUGCCUGAAGGGCCUUGGUUUUUUG [C11G A121G]
1.78
4. GACCAAUCUGCCCUCAGAGCUCGAGAACAUCUUCGGAUGCAGAGGAGGCAGGCUUCGGUGGCGCGAUAGCGCCAACGCCCUCAACCACCAAUGCAUCCCACCACAUGAUGAUGCCUGAAGAGCCUUGGUUUUUUG [U78C U87A]
1.12
5. GACCAAUCUGCCCUCAGAGCUCGAGAACCUCUUCGGAUGCAGAGGAGGCAGGCUUCGGUGGCGCGAUAUCGCCAACGUCCUCAACCUCCAAUGCAUCCUACCACAUGAUGAUGCCUGAAGAGCCUUGGUUUUUUG [A29C G69U C99U]
-3.95
6. GACCAAUCUGCCCUGAGAGCUCGAGAACAUCUUCGGAUGCAGAGGAGGGAGGCUUCGGUGGCGCGAUAGCGCCAACGUCCUCAACCUCUAAUGCAUCCCACCACAUGAUGAUGCGUGAAGAGCCUUGGUUUUUUG [C15G C49G C89U C115G]
-4.39
7. GACCAAUUUGCCCUCAGAGCUCGAGAACAUCUUCGGAUGCCGAGGAGGCAGGCUUCGGUGGCGCGAUAGCGCCAACGUCCUCAACCUCCACUGCAUCCCACCACAUGAUGAUGCCUGAAGAGUCUUGGUUUUUUG [C8U A41C A91C C123U]
0.0486
8. GACCAAUCUGCCCUCAGAGAUCGAGAACAUCUUCGGAUGCAGAGGAGGCAGGCUUCGGUGGGUCGAUAGCGCCAACGUCCUCAACCUCCAAUGCAUCCCACCACAUGAUGAUGACUGAAAAGCCUUGGUUUUUUG [C20A C62G G63U C114A G120A]
-6.07
9. GACCAAUCUGCCCUCAGAGCUCGAGAACAUCUUCGGAUGUAGAGGAGGCUGGCUUCGGUGGCGCGAUAGCGCCAACGUCCUCAACCUCCAAUGCAUCCCACCACAUGAUGAUGCCUGAAGAGCCUUGGUUUUUUG [C40U A50U]
-4.47
10. GACCAUUGUGCCCUCAGAGCUCGAGAACAUCUUCGGAUGCAGAUGAGGAAGGCUUCGGUGGCGCGAUAGCGCCAACUUCCUCAACCUCCAAUGCAUCCCACCACAUGAUGAUGCCUGAACAGCCUUGGUGUUUUG [A6U C8G G44U C49A G77U G120C U130G]
-2.14
11. GAUCAAUCUGCCCUCAGAGCUCGAGAACAUCUUCGGAUGCAGAGGAGGCAGGCUUCGGUGGCGCGAUAUCGCCAACGUCCUCAACCUCCAAUGCAUCCCACCACGUGAUGAUGCCUCAAGAGCCUUGGUUUUUUG [C3U G69U A105G G117C]
-4.98
12. GACCAAUCUGCCCUCAGAGCUCGAGAACAUCUUCGGAUGCAGAGGAGGCAGGCUUCGGUGGCGCGAUAGCACCAACGUCCUCAACCUCCAAUGCAUCCCACCAUAUGAUGAUGCCUGAAGAGCCUUGGUUUUUUG [G71A C104U]
-0.49
13. GACCAAUCUGCCCUCAGAGCUCGAGAACAUCUUCGGAUGCAGAGGAGGCAGGCUUCGGUGGCGCGAUAGCGCCAACGUCCUCAACCUCCAAUGCAUCCCACCACAUGAUGUUGCCUGAAGAGCCUUGGUUUUUUG [A111U]
-2.62
14. GACCAAUCUGCGCUCAGAGCUCGAGAACAUCUUCGGAUGCAGAGGAGGCAGGCUUCGGUGGCGCGAUAGGGCCAACGUCCUCAAACUCCAAUGCAUCCCACCACAUGAUGAUGCCUGAAGAGCCUUGGUUUUUUG [C12G C70G C85A]
-3.7
15. GACCAAUCUGCCCUCAGAGCUCGAGAACAUCUUCGGAUGCAGAGGAGGCAGGCUUCGGUGGCGCGUUAGCCCCAACGUCCUCAACCUCCAAUGCAUCCCACCACAUGAUGAUGCCUGAAGAGCCUUGGUUUUUUG [A66U G71C]
-3.02
16. GACCAAUCUGCCCUCAGAGCUCGAGAACAUCUUCGGAUGCAGAGGAGGCAGGCUUCGGUGGCGCGAUAGCGCCCACGUCCUCAACCUCCUAUGCAUCCCACCACAUGAUGAUGCCUGAAGAGCCUUGGUUUUUUG [A74C A90U]
-0.572
17. GACCAAUCUGCCGUCAGAGCUCGAGAACAUCUUCGGAUGCAGAGGAGGCAGCCUUCGGUGGCGCGAUAGCGCCAACGUCCUCAACUUCCAAUGCAUCCCACCACAUGAUGAUGCCUGGAGAGCCUUGGUUUUUUG [C13G G52C C86U A118G]
-5.59
18. GACCAAUCUGCGCUCAGAGCUCGAGAACAUCUUCGGAUGCAGAGGAGGCAGGCUUCGGUGGCGCGAUAGCGCCAACGUCCUCAACCUCCAAUGCAUCCCACCAUAUGAUGAUGCCUGAAGAGCCUUGCUUUUAUG [C12G C104U G128C U133A]
-0.738
19. GACCAAUCUGCCCUCAGAGCUCGAGAACAUCUUCGGAUGCAGAGGAGGCAGGAUUCGGUGACGCGAUAGCGCCAACGGCCUCAACCUCCAAUGCAUCCCACCACAUGAUGAUGCCUGAAGAGCCUUGGUUUUUUG [C53A G61A U78G]
0.644
20. GACCAAUCUGCCCUCAGAGCUCGAGAACAUCUUCGGAUGCAGAGGAGGCAGGCUUCGGCGGCGCGAUAGCGCCAACGUCCUCAACCUCAAAUGCCUCCCACCACAUGAUGAUCCCUGAAGAGCCUUGGUUUUUUG [U59C C89A A95C G113C]
-4.48
21. GACCAAUCUGCCCUCAGAGCUCGAGAACAUCUUCGGAUGCAGAGGAGGCAGGCUUCGGUGGCGCGAUAUCGCCAACGUCCUCAACCUGCAAUGCAUCCCACCACAUGAUGAUGCCUGAAGAGCCUUGGUUUUUUG [G69U C88G]
-0.121
22. GACCAAUCUGCCCUCAGAGCUCGAGAACAUCUUCGGAUGCAGAGGAGGCAGGCUUCGGUGGCGCGAUAGCGCUAACGUCCUCAACCUCCAAUCCAUCCCACCACAUGAUGAUGCCUGAAGAGCUCUGGUUUUUUG [C73U G93C C124U U125C]
-1.39
